Reference source: PubChem BioAssay (NCI)

# Test system: LOX IMVI melanoma
# method_notes: NCI-60 one-dose screen, 48 h (100 = growth as untreated, 0 = no growth, -100 = all killed)
# experimental_context: 10 µM
This is part of a sample that, as a whole, favours compounds with a hit. Of some 83,000 tested, about 20% had one in any assay.
Please use 1 whenever growth is not below 80%, and 0 whenever it is.

The following compounds have reported results that may help.
[
  {
    "compound": "CC(=C(c1ccc(OCCN2CCCCCC2)cc1)c1ccc(OCCN2CCCCCC2)cc1)c1ccc(Cl)cc1",
    "qualitative_label": 0
  },
  {
    "compound": "C=C(C)[C@@H]1CC[C@]2(C(=O)OC)CC[C@]3(C)[C@H](CC[C@@H]4[C@@]5(C)CC[C@H](N)C(C)(C)[C@@H]5CC[C@]43C)[C@@H]12",
    "qualitative_label": 0
  },
  {
    "compound": "CC1=N/C(=C\\c2ccc(N(C)C)cc2)C(=O)N1CCc1ccc(S(N)(=O)=O)cc1",
    "qualitative_label": 1
  }
]

Enquiry: Answer whether growth of Cc1cc(=O)oc2cc(OCCCCOc3ccc(/C=C/C(=O)Nc4ccc(F)c(Cl)c4)cc3)ccc12 is greater than or equal to 80%.
Return: 1

Enquiry: Evaluate O=C(c1ccc(Cl)cc1)C1[C@H](c2ccccc2Br)[C@@H](c2ccccc2)NC12C(=O)Nc1ccc(Cl)cc12 (stereo partly drawn) : growth at minimum 80%?
Return: 0

Enquiry: growth >= 80% for CN1CCN(c2ccc(Nc3nc(NCCCNC(=O)c4ccc(F)cc4)c4sccc4n3)cc2)CC1 ?
Return: 0
